Each recorded value in this set is attributed to the NIST ThermoML archive (doi:10.1016/j.jct.2010.06.009).

compounds and their reported activity coefficient
- PROTOCOL_DESCRIPTION: activity coefficient (dimensionless); of the first substance listed, at infinite dilution; xn = mol fraction of the nth substance listed
- TEST_SETTINGS: 313.1 K; 101 kPa; Liquid; Chromatography; x1 = 0

{"COMPOUND": "C=CCCCC [hex-1-ene] + CC[n+]1ccccc1.O=S(=O)([N-]S(=O)(=O)C(F)(F)F)C(F)(F)F", "activity coefficient": 9.42}
{"COMPOUND": "CO [methanol] + CC[n+]1ccccc1.O=S(=O)([N-]S(=O)(=O)C(F)(F)F)C(F)(F)F", "activity coefficient": 1.69}
{"COMPOUND": "Cc1ccccc1 [toluene] + CC[n+]1ccccc1.O=S(=O)([N-]S(=O)(=O)C(F)(F)F)C(F)(F)F", "activity coefficient": 2.09}
{"COMPOUND": "CCc1ccccc1 [ethylbenzene] + CC[n+]1ccccc1.O=S(=O)([N-]S(=O)(=O)C(F)(F)F)C(F)(F)F", "activity coefficient": 3.36}
{"COMPOUND": "CCO [ethanol] + CC[n+]1ccccc1.O=S(=O)([N-]S(=O)(=O)C(F)(F)F)C(F)(F)F", "activity coefficient": 2.36}
{"COMPOUND": "CCCO [propan-1-ol] + CC[n+]1ccccc1.O=S(=O)([N-]S(=O)(=O)C(F)(F)F)C(F)(F)F", "activity coefficient": 3.18}
